src = paper PMC6272399

tested on: DU 145 cells; test: MTT cytotoxicity (cell viability) assay, DU 145; assay type: cell-based, human; details: Homo sapiens, DU-145; MTT, 72 h treatment, mean ± SD, three experiments; read-out: EC50 Values (µM) of Compounds on Cell Lines DU 145
Rule for this label: y means EC50 is less than 10 µM; n means EC50 is at least 10 µM.

Data request: Criterion: EC50 strictly below 10 µM. Is it met by O=C1C(=Cc2cccc(F)c2)CCCC1=Cc1cccc(F)c1 ?
Data returned: n

Data request: Criterion: EC50 strictly below 10 µM. Is it met by COc1cc(/C=C/C(=O)CC(=O)/C=C/c2ccc(O)c(OC)c2)ccc1O [Curcumin, diferuloylmethane, reference compound] ?
Data returned: n

Data request: Criterion: EC50 strictly below 10 µM. Is it met by O=C(C=Cc1ccccc1O)C=Cc1ccccc1O ?
Data returned: y

Data request: Criterion: EC50 strictly below 10 µM. Is it met by COc1cc(C=CC(=O)C=Cc2ccc(O)c(OC)c2)ccc1O ?
Data returned: y

Data request: Criterion: EC50 strictly below 10 µM. Is it met by O=C(C=Cc1cccc(F)c1)C=Cc1cccc(F)c1 [MS40E] ?
Data returned: n

* * *

tested on: PC-3 cells; experiment: BrdU cell proliferation assay, PC-3; type: cell-based, human; settings: PC-3, BrdU, 72 h
MEASURED_PARAMETER: concentration from which anti-proliferative activity is significant (µM)
Note: unit µM is implicit; provide only the numeric part.

Data request: Would you kindly share the measured concentration from which anti-proliferative activity is significant for O=C(C=Cc1ccccc1O)C=Cc1ccccc1O [MS17] ?
Data returned: 12.5

Data request: Would you kindly share the measured concentration from which anti-proliferative activity is significant for O=C(C=Cc1cccc(F)c1)C=Cc1cccc(F)c1 [MS40E] ?
Data returned: 50

Data request: Would you kindly share the measured concentration from which anti-proliferative activity is significant for O=C1C(=Cc2cccc(F)c2)CCCC1=Cc1cccc(F)c1 [MS49] ?
Data returned: 25

Data request: Would you kindly share the measured concentration from which anti-proliferative activity is significant for COc1cc(/C=C/C(=O)CC(=O)/C=C/c2ccc(O)c(OC)c2)ccc1O [Curcumin, diferuloylmethane, reference compound] ?
Data returned: 50

Data request: Would you kindly share the measured concentration from which anti-proliferative activity is significant for COc1cc(C=CC(=O)C=Cc2ccc(O)c(OC)c2)ccc1O [MS13] ?
Data returned: 12.5

* * *

tested on: DU 145 cells; assay: MTT cytotoxicity (cell viability) assay, DU 145; assay type: cell-based, human; settings: DU 145, MTT, vs untreated
MEASURED_PARAMETER: dose from which decrease in cell viability is significant (µM)
Note: unit µM is implicit; provide only the numeric part.

Data request: Would you kindly share the measured dose from which decrease in cell viability is significant for O=C(C=Cc1cccc(F)c1)C=Cc1cccc(F)c1 [MS40E] ?
Data returned: 50

Data request: Would you kindly share the measured dose from which decrease in cell viability is significant for COc1cc(C=CC(=O)C=Cc2ccc(O)c(OC)c2)ccc1O ?
Data returned: 12.5

Data request: Would you kindly share the measured dose from which decrease in cell viability is significant for COc1cc(/C=C/C(=O)CC(=O)/C=C/c2ccc(O)c(OC)c2)ccc1O [Curcumin, diferuloylmethane, reference compound] ?
Data returned: 50

Data request: Would you kindly share the measured dose from which decrease in cell viability is significant for O=C(C=Cc1ccccc1O)C=Cc1ccccc1O ?
Data returned: 6.3

Data request: Would you kindly share the measured dose from which decrease in cell viability is significant for O=C1C(=Cc2cccc(F)c2)CCCC1=Cc1cccc(F)c1 ?
Data returned: 25

* * *

test system: PC-3 cells; assay: MTT cytotoxicity (cell viability) assay, PC-3; format: cell-based, human; conditions: SX = EC50 (WI-38)/EC50 (PC-3) × 100
MEASURED_PARAMETER: Selective index (SX) WI-38 vs PC-3
In your answer, state the number alone without any accompanying words.

Data request: Would you kindly share the measured Selective index (SX) WI-38 vs PC-3 for COc1cc(/C=C/C(=O)CC(=O)/C=C/c2ccc(O)c(OC)c2)ccc1O [Curcumin, diferuloylmethane, reference compound] ?
Data returned: 77.5

Data request: Would you kindly share the measured Selective index (SX) WI-38 vs PC-3 for O=C(C=Cc1ccccc1O)C=Cc1ccccc1O [MS17] ?
Data returned: 117.4

Data request: Would you kindly share the measured Selective index (SX) WI-38 vs PC-3 for COc1cc(C=CC(=O)C=Cc2ccc(O)c(OC)c2)ccc1O [MS13] ?
Data returned: 124.8

Data request: Would you kindly share the measured Selective index (SX) WI-38 vs PC-3 for O=C(C=Cc1cccc(F)c1)C=Cc1cccc(F)c1 [MS40E] ?
Data returned: 101.4

Data request: Would you kindly share the measured Selective index (SX) WI-38 vs PC-3 for O=C1C(=Cc2cccc(F)c2)CCCC1=Cc1cccc(F)c1 [MS49] ?
Data returned: 134.3

* * *

test system: PC-3 cells; assay: MTT cytotoxicity (cell viability) assay, PC-3; format: cell-based, human; conditions: Homo sapiens, PC-3; MTT, 72 h treatment, mean ± SD, three experiments; read-out: EC50 Values (µM) of Compounds on Cell Lines PC-3
Answer each item with its documented EC50.
Note: unit µM is implicit; provide only the numeric part.

Data request: Would you kindly share the measured EC50 for O=C(C=Cc1ccccc1O)C=Cc1ccccc1O ?
Data returned: 4.4

Data request: Would you kindly share the measured EC50 for O=C(C=Cc1cccc(F)c1)C=Cc1cccc(F)c1 [MS40E] ?
Data returned: 28

Data request: Would you kindly share the measured EC50 for O=C1C(=Cc2cccc(F)c2)CCCC1=Cc1cccc(F)c1 ?
Data returned: 14.5

Data request: Would you kindly share the measured EC50 for COc1cc(/C=C/C(=O)CC(=O)/C=C/c2ccc(O)c(OC)c2)ccc1O [Curcumin, diferuloylmethane, reference compound] ?
Data returned: 35.9

Data request: Would you kindly share the measured EC50 for COc1cc(C=CC(=O)C=Cc2ccc(O)c(OC)c2)ccc1O ?
Data returned: 7.5
